The measured values listed here are drawn from patent US20230265151A1.

Recorded cAMP EC50 (1.0% HSA) by entry
- Target Or System: human GLP-1 receptor (human, UniProt P43220 24-463)
- Assay Method Text: cell-based or functional assay
*1 amine or outer side, *2 acyl side, *3 side chain or, on linkers, in order; H or OH if unused. Where no end group is shown, it is not given here. Side-chain parts run from the residue outwards. [ ]: non-standard residue; d: D form. The star is where a group is joined. αMePhe(2-F) = C[C@](N)(Cc1ccccc1F)C(=O)O; γGlu = O=C(O)[C@H](CCC(=O)[*:2])N[*:1]; C14 diacid = O=C(O)CCCCCCCCCCCCC(=O)*; αMeY = C[C@](N)(Cc1ccc(O)cc1)C(=O)O; αMeL = CC(C)C[C@](C)(N)C(=O)O; Orn = NCCC[C@H](N)C(=O)O; AEEA = NCCOCCOCC(=O)O; Aib = CC(C)(N)C(=O)O
Answer with the figure and its unit, nothing else.

Example entries begin here.
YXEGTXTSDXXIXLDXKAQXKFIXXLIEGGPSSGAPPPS (Y-Aib-EGT-αMeF(2F)-TSD-4Pal-Aib-I-αMeL-LD-Orn-K((2-[2-(2-Amino-ethoxy)-ethoxy]-acetyl)-(γ-Glu)-CO-(CH2)12-CO2H)AQ-Aib-K((2-[2-(2-Amino-ethoxy)-ethoxy]-acetyl)-(γ-Glu)-CO-(CH2)12-CO2H)FI-(D-Glu)-αMeY-LIEGGPSSGAPPPS-NH2) [Example 336] :: 47 nM
Y[Aib]EGT[αMePhe(2-F)]TSDV[Aib]I[αMeL]LD[Orn]K([AEEA-AEEA-γGlu-C14 diacid])AQ[Aib][Orn]FI[dE][αMeY]LIK([AEEA-AEEA-γGlu-C14 diacid])GGPSSGAPPPS-NH2 [Example 350] :: 6.4 nM
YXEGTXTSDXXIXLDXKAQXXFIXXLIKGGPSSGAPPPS (Y-Aib-EGT-αMeF(2F)-TSD-4Pal-Aib-I-αMeL-LD-Orn-K((2-[2-(2-Amino-ethoxy)-ethoxy]-acetyl)2-(α-Glu)-(10-(4-carboxyphenoxy)decanoyl))AQ-Aib-Om-FI-(D-Glu)-αMeY-LIK((2-[2-(2-Amino-ethoxy)-ethoxy]-acetyl)2-(γ-Glu)-(10-(4-carboxyphenoxy)decanoyl))GGPSSGAPPPS-NH2) [Example 351] :: 5.8 nM

What value of measured cAMP EC50 (1.0% HSA) is listed for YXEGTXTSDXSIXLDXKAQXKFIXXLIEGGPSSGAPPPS (Y-Aib-EGT-αMeF(2F)-TSD-2Nal-SI-αMeL-LD-Orn-K((2-[2-(2-Amino-ethoxy)-ethoxy]-acetyl)2-CO-(CH2)12-CO2H)AQ-Aib-K((2-[2-(2-Amino-ethoxy)-ethoxy]-acetyl)2-CO-(CH2)12-CO2H)FI-(D-Glu)-αMeY-LIEGGPSSGAPPPS-NH2 …) [Example 255] ?
13.7 nM

What value of cAMP EC50 (1.0% HSA) has been recorded for this entry: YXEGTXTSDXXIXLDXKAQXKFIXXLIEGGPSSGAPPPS (Y-Aib-EGT-αMeF(2F)-TSD-4Pal-Aib-I-αMeL-LD-Orn-K((2-[2-(2-Amino-ethoxy)-ethoxy]-acetyl)2-(γ-Glu)-CO-(CH2)10-CH3)AQ-Aib-K((2-[2-(2-Amino-ethoxy)-ethoxy]-acetyl)2-(γ-Glu)-CO-(CH2)10-CH3)FI-(D-Glu)-αMeY-LIEGGPSSGAPPPS-NH2) [Example 322]
8.09 nM
